// provenance: the supplement of paper PMC10567573

# METHOD_NOTES: protein stability index of a GFP-peptide fusion (GPS, HEK-293T) (PSI 1-6); higher = more stable;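 also: 24-mer peptide tiles fused after GFP, lentivirally expressed, FACS-sorted into six equal bins by GFP/DsRed ratio, decoded by Illumina sequencing, PSI is the read-weighted mean bin number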
# STUDY_CONDITIONS: treatment: DMSO; c terminus: a fixed tail appended
QUANTITY_NAME: protein stability index

(Q) Need protein stability index, item FFYDCSNNPISEHFHPTVIGESMY [TENT5C]
(A) 2.16

(Q) Can you handle GMNGQMLCNLGKERFLELAPDFVG [ETS2] next?
(A) 2.89

(Q) Can you handle GKAAQAGVAVGDWVLSIDGENAGS [PDLIM7] next?
(A) 3.97

(Q) Can you handle KPLTLEALGHLGNDDSADYQHFLQ [DLC1] next?
(A) 4.23

(Q) Can you handle VCDLQSLLGYTPEELHAMLDVKPD [ETS1] next?
(A) 4.04

----------
The entries below come with measured protein stability index values attached.
# METHOD_NOTES: protein stability index of a GFP-peptide fusion (GPS, HEK-293T) (PSI 1-6); higher = more stable
# STUDY_CONDITIONS: treatment: DMSO; c terminus: a fixed tail appended
Answer field: number only, no words.

Sample records with protein stability index:
CHAIN_SEQUENCE	protein stability index
ELVLVSAGFDAARGDPLGGCQVSP [HDAC6]	2.89
LDDGEIDEIRWKYHSDTTPKIIES [IQUB]	4.25
QQSPAAVSMETYHVTLTLPPTQLE [C2CD2L]	3.37

(Q) Need protein stability index, item RTTRGLDPLFGMCEKFLQEVDFFQ [INTS4]
(A) 2.05

(Q) Can you handle NVTELLRDVAAWGRARATGGDLEE [DNAAF3] next?
(A) 3.63

----------
The entries below come with measured protein stability index values attached.
# METHOD_NOTES: protein stability index of a GFP-peptide fusion (GPS, HEK-293T) (PSI 1-6); higher = more stable
# STUDY_CONDITIONS: treatment: MLN4924 1 uM, 8 h; c terminus: a fixed tail appended
Answer field: number only, no words.

Sample records with protein stability index:
CHAIN_SEQUENCE	protein stability index
SLDSLDGLSLTDESDSCVSFEAPL [PSD2]	4.86
VQLIQDTRIHILPSMNPDGYEVAA [CPN1]	2.57
KMKHHLTEHMKTHTGLKPYECGVC [ZBTB22]	3.5
ISGGVHNGEYVPWLYCYDPVMDVW [KLHL14]	2.59
QRVEQLTRDLAGLRQFFKQLPSPP [CEBPD]	2.82

(Q) Need protein stability index, item PVLGRRAVGGRLRLVPGGQRPADV [HAGHL]
(A) 3.88

(Q) Can you handle HARLSDIWAKTPPITRKAAQLYTL [DHCR7] next?
(A) 2.3

----------
# METHOD_NOTES: protein stability index of a GFP-peptide fusion (GPS, HEK-293T) (PSI 1-6); higher = more stable
# STUDY_CONDITIONS: treatment: DMSO; c terminus: a fixed tail appended
QUANTITY_NAME: protein stability index
Answer field: number only, no words.

Sample records with protein stability index:
CHAIN_SEQUENCE	protein stability index
PETFWIQRAPQLPTWWPLPTQVPA [SPAG8]	2.42
PQPPDAPQLVSSAREGSSEPWLPL [PLEKHN1]	4.36

(Q) Need protein stability index, item VIGFAKMIPGFRDLTSEDQIVLLK [VDR]
(A) 2.36

(Q) Can you handle TATTAPPALDIFGDLFESTPEVAA [SNAP91] next?
(A) 4.62

(Q) Can you handle VATTARHSAAYRADPLRVSSRDKL [FUNDC2] next?
(A) 4.1

(Q) Can you handle QNQNITLDCEGTTNKMKSPETKQR [KMT2E] next?
(A) 5.37

(Q) Can you handle SAVEKEPARAPPEPPHNLFCAPGS [SERTAD3] next?
(A) 4.95

(Q) Can you handle EDPVPGMLFFLPPGQHLSDYSQLN [FBXO34] next?
(A) 3.03

(Q) Can you handle LSLFVQKLGNLMSLDISGHMILEN [ZER1] next?
(A) 3.24

(Q) Can you handle GGSSAVGQFVSLDGAGKTPTLGGG [BRF1] next?
(A) 4.34

(Q) Can you handle TAEMARVLTDSNHVPLQRLSLLVH [FBXO33] next?
(A) 2.83

(Q) Can you handle EKSGSAEPFVLPASSVESTLPVLE [FBXO34] next?
(A) 5.08

(Q) Can you handle SVFSARDRDPNSLLISCAVSYRGA [TNXB] next?
(A) 2.4

(Q) Can you handle NDFCSFYNILKTCRGHTLERSVFS [CARM1] next?
(A) 2.78
